# Test system: MCF7
# METHOD_DESCRIPTION: Cytotoxicity against human MCF7 cells after 96 hrs by sulforhodamine-B assay
# Type: functional, cell-based
# RUN_CONDITIONS: MCF7, 96 h
pEC50: −log10 of the molar value.
PROPERTY_LABEL: pEC50

[[record]]
entry_smiles = "CC(=O)O[C@H]1CC[C@]2(C)[C@H]3CC=C4[C@@H]5CC(C)(C)CC[C@]5(C(=O)N(CC(=O)NCc5ccccc5)Cc5ccccc5)CC[C@@]4(C)[C@]3(C)CC[C@H]2C1(C)C"
property_label = "pEC50"
reported_relation = "<"
measured = 4.52

[[record]]
entry_smiles = "CCCCNC(=O)CN(Cc1ccccc1)C(=O)[C@]12CCC(C)(C)C[C@H]1C1=CC[C@@H]3[C@@]4(C)CC[C@H](O)C(C)(C)[C@@H]4CC[C@@]3(C)[C@]1(C)CC2"
property_label = "pEC50"
reported_relation = "<"
measured = 4.52

[[record]]
entry_smiles = "C=CCN(CC(=O)NCc1ccccc1)C(=O)[C@]12CCC(C)(C)C[C@H]1C1=CC[C@@H]3[C@@]4(C)CC[C@H](O)C(C)(C)[C@@H]4CC[C@@]3(C)[C@]1(C)CC2"
property_label = "pEC50"
reported_relation = "<"
measured = 4.52

[[record]]
entry_smiles = "CC(=O)O[C@@H]1C[C@]2(C)[C@H]3CC=C4[C@@H]5CC(C)(C)CC[C@]5(C(=O)N(CC(=O)NCc5ccccc5)Cc5ccccc5)CC[C@@]4(C)[C@]3(C)CC[C@H]2C(C)(C)[C@H]1OC(C)=O"
property_label = "pEC50"
reported_relation = "="
measured = 5.68

[[record]]
entry_smiles = "CC(=O)O[C@@H]1C[C@]2(C)[C@H]3CC=C4[C@@H]5CC(C)(C)CC[C@]5(C(=O)N(CC(=O)NCc5ccccc5)Cc5ccoc5)CC[C@@]4(C)[C@]3(C)CC[C@H]2C(C)(C)[C@H]1OC(C)=O"
property_label = "pEC50"
reported_relation = "="
measured = 5.47

[[record]]
entry_smiles = "CC(=O)O[C@H]1CC[C@]2(C)[C@H]3CC=C4[C@@H]5CC(C)(C)CC[C@]5(C(=O)OCC(=O)NC(C)(C)C)CC[C@@]4(C)[C@]3(C)CC[C@H]2C1(C)C"
property_label = "pEC50"
reported_relation = "="
measured = 4.89

[[record]]
entry_smiles = "CC(C)NC(=O)CN(Cc1ccoc1)C(=O)[C@]12CCC(C)(C)C[C@H]1C1=CC[C@@H]3[C@@]4(C)CC[C@H](O)C(C)(C)[C@@H]4CC[C@@]3(C)[C@]1(C)CC2"
property_label = "pEC50"
reported_relation = "="
measured = 5.31

[[record]]
entry_smiles = "CC(=O)O[C@H]1CC[C@]2(C)[C@H]3CC=C4[C@@H]5CC(C)(C)CC[C@]5(C(=O)N(CC(=O)NC(C)(C)C)Cc5ccoc5)CC[C@@]4(C)[C@]3(C)CC[C@H]2C1(C)C"
property_label = "pEC50"
reported_relation = "="
measured = 4.70


----------
The entries below are paired with their reported pEC50.
# System: MCF7
# METHOD_DESCRIPTION: Cytotoxicity against human MCF7 cells after 96 hrs by sulforhodamine-B assay
# Type: functional, cell-based
# RUN_CONDITIONS: MCF7, 96 h
pEC50: −log10 of the molar value.
PROPERTY_LABEL: pEC50

[[record]]
entry_smiles = "CCCCN(CC(=O)NCc1ccccc1)C(=O)[C@]12CCC(C)(C)C[C@H]1C1=CC[C@@H]3[C@@]4(C)CC[C@H](OC(C)=O)C(C)(C)[C@@H]4CC[C@@]3(C)[C@]1(C)CC2"
measured = "< 4.52"

[[record]]
entry_smiles = "C=CCN(CC(=O)NCCCC)C(=O)[C@]12CCC(C)(C)C[C@H]1C1=CC[C@@H]3[C@@]4(C)CC[C@H](OC(C)=O)C(C)(C)[C@@H]4CC[C@@]3(C)[C@]1(C)CC2"
measured = "< 4.52"

[[record]]
entry_smiles = "CC(=O)O[C@H]1CC[C@]2(C)[C@H]3CC=C4[C@@H]5CC(C)(C)CC[C@]5(C(=O)N(CC(=O)NC(C)(C)C)Cc5cccc(F)c5)CC[C@@]4(C)[C@]3(C)CC[C@H]2C1(C)C"
measured = "< 4.52"


----------
# System: FaDu
# METHOD_DESCRIPTION: Cytotoxicity against human FADU cells after 96 hrs by sulforhodamine-B assay
# Assay type: functional, cell-based
PROPERTY_LABEL: EC50 (µM)

[[record]]
entry_smiles = "C=CCN(CC(=O)NCCCC)C(=O)[C@]12CCC(C)(C)C[C@H]1C1=CC[C@@H]3[C@@]4(C)CC[C@H](O)C(C)(C)[C@@H]4CC[C@@]3(C)[C@]1(C)CC2"
unit_label = "µM"
reported_relation = ">"
measured = 30

[[record]]
entry_smiles = "CCCCN(CC(=O)NCc1ccccc1)C(=O)[C@]12CCC(C)(C)C[C@H]1C1=CC[C@@H]3[C@@]4(C)CC[C@H](O)C(C)(C)[C@@H]4CC[C@@]3(C)[C@]1(C)CC2"
unit_label = "µM"
reported_relation = ">"
measured = 30

[[record]]
entry_smiles = "C=CCN(CC(=O)NCc1ccccc1)C(=O)[C@]12CCC(C)(C)C[C@H]1C1=CC[C@@H]3[C@@]4(C)CC[C@H](O)C(C)(C)[C@@H]4CC[C@@]3(C)[C@]1(C)CC2"
unit_label = "µM"
reported_relation = ">"
measured = 30

[[record]]
entry_smiles = "CC1(C)CC[C@]2(C(=O)N(CC(=O)NCc3ccccc3)Cc3ccoc3)CC[C@]3(C)C(=CC[C@@H]4[C@@]5(C)CC[C@H](O)C(C)(C)[C@@H]5CC[C@]43C)[C@@H]2C1"
unit_label = "µM"
reported_relation = ">"
measured = 30

[[record]]
entry_smiles = "CC(=O)O[C@@H]1C[C@]2(C)[C@H]3CC=C4[C@@H]5CC(C)(C)CC[C@]5(C(=O)N(CC(=O)NCc5ccccc5)Cc5ccccc5)CC[C@@]4(C)[C@]3(C)CC[C@H]2C(C)(C)[C@H]1OC(C)=O"
unit_label = "µM"
reported_relation = "="
measured = 2.1

[[record]]
entry_smiles = "CC(C)N(CC(=O)NCc1ccccc1)C(=O)[C@]12CCC(C)(C)C[C@H]1C1=CC[C@@H]3[C@@]4(C)CC[C@H](O)C(C)(C)[C@@H]4CC[C@@]3(C)[C@]1(C)CC2"
unit_label = "µM"
reported_relation = ">"
measured = 30

[[record]]
entry_smiles = "CCCCN(CC(=O)NCc1ccccc1)C(=O)[C@]12CCC(C)(C)C[C@H]1C1=CC[C@@H]3[C@@]4(C)CC[C@H](OC(C)=O)C(C)(C)[C@@H]4CC[C@@]3(C)[C@]1(C)CC2"
unit_label = "µM"
reported_relation = "="
measured = 19.8

[[record]]
entry_smiles = "C=CCN(CC(=O)NCCCC)C(=O)[C@]12CCC(C)(C)C[C@H]1C1=CC[C@@H]3[C@@]4(C)CC[C@H](OC(C)=O)C(C)(C)[C@@H]4CC[C@@]3(C)[C@]1(C)CC2"
unit_label = "µM"
reported_relation = "="
measured = 16.1

[[record]]
entry_smiles = "CC1(C)CC[C@]2(C(=O)N(CC(=O)NC(C)(C)C)Cc3ccoc3)CC[C@]3(C)C(=CC[C@@H]4[C@@]5(C)CC[C@H](O)C(C)(C)[C@@H]5CC[C@]43C)[C@@H]2C1"
unit_label = "µM"
reported_relation = "="
measured = 17.4

[[record]]
entry_smiles = "CN(CC(=O)NC(C)(C)C)C(=O)[C@]12CCC(C)(C)C[C@H]1C1=CC[C@@H]3[C@@]4(C)CC[C@H](O)C(C)(C)[C@@H]4CC[C@@]3(C)[C@]1(C)CC2"
unit_label = "µM"
reported_relation = "="
measured = 8.1


----------
# Tested on: FaDu
# METHOD_DESCRIPTION: Cytotoxicity against human FADU cells after 96 hrs by sulforhodamine-B assay
# Assay type: functional, cell-based
PROPERTY_LABEL: EC50

[[record]]
entry_smiles = "CC(=O)O[C@H]1CC[C@]2(C)[C@H]3CC=C4[C@@H]5CC(C)(C)CC[C@]5(C(=O)N(CC(=O)NC(C)(C)C)Cc5cccc(F)c5)CC[C@@]4(C)[C@]3(C)CC[C@H]2C1(C)C"
measured = "> 30 µM"

[[record]]
entry_smiles = "CCCCNC(=O)CN(Cc1ccccc1)C(=O)[C@]12CCC(C)(C)C[C@H]1C1=CC[C@@H]3[C@@]4(C)CC[C@H](O)C(C)(C)[C@@H]4CC[C@@]3(C)[C@]1(C)CC2"
measured = "> 30 µM"

[[record]]
entry_smiles = "CC1(C)CC[C@]2(C(=O)N(CC(=O)NC(C)(C)C)Cc3cccc(F)c3)CC[C@]3(C)C(=CC[C@@H]4[C@@]5(C)CC[C@H](O)C(C)(C)[C@@H]5CC[C@]43C)[C@@H]2C1"
measured = "> 30 µM"

